Test system: HT29 colon
Assay: NCI-60 one-dose screen, 48 h
Settings: 10 µM unless noted
The panel holds about 83,000 compounds, 20% with a hit somewhere; the sample as a whole holds those more often. The source made the active and inactive calls. Rule for the calls: active = growth percent below 10; inactive = the rest.
Classes used: active, inactive

- COC(=O)[C@H](Cc1ccccc1)NC(=O)c1csc([C@@H](C[C@H](C(C)C)N(C)C(=O)[C@@H](NC(=O)[C@H]2CCCN2C)C2CC2)OC(C)=O)n1: active
- O=P(Oc1ccc(Cl)cc1)(N1CC1)N1CC1: inactive
- CNC12C3C4C1C1C2C3C41C(=O)N[C@H](C(=O)N(C)[C@H](C[C@@H](OC(C)=O)c1nc(C(=O)N[C@@H](Cc2ccccc2)C[C@H](C)C(=O)OC)cs1)C(C)C)C1CC1 (stereo partly drawn): active

* * *

Test system: EKVX NSCLC
Assay: NCI-60 one-dose screen, 48 h
Conditions: 10 µM unless noted
This is part of a sample that, as a whole, favours compounds with a hit. Of some 83,000 tested, about 20% had one in any assay. Calls of active or inactive are those of the source. Rule for the calls: active = growth percent below 10; inactive = the rest.
Outcome codes: active, inactive

- Cc1cc(C)cc(Nc2nc3c(s2)CC[C@@]2(C)C3=CC[C@@H]3[C@@H]2CC[C@]2(C)C(=O)CC[C@@H]32)c1: inactive
- CCCC[C@H](NC(=O)[C@H]1CCCCN1C)C(=O)N(C)[C@H](C[C@@H](OC(C)=O)c1nc(C(=O)N[C@@H](Cc2ccccc2)C[C@H](C)C(=O)OCC)cs1)C(C)C: inactive
- COc1cc([C@@H]2c3cc4c(cc3[C@H](OC(C)=O)[C@H]3COC(=O)[C@H]23)OCO4)cc(OC)c1OC: inactive
- CCOP1(=O)CC(C)=C(Cl)C(P(=O)(OCC)OCC)C1 (stereo not drawn): inactive
- Cc1ccc(C(=O)NCCCOc2ccc(N3C(N)=NC(N)=NC3(C)C)cc2Cl)cc1S(=O)(=O)F: inactive
- O=C1C(=Cc2cn(Cc3ccccc3)c3ccccc23)C(=O)N(Cc2ccccc2)C(=O)N1Cc1ccccc1: inactive
- O=[N+]([O-])c1cc([N+](=O)[O-])c(Cl)cc1Cl: active
- COc1ccc2c(c1)c(C1(O)CC(CSC#N)OC1=O)cn2C(=O)c1ccc(Cl)cc1 (stereo not drawn): inactive

* * *

Test system: SF-539 CNS
Assay: NCI-60 one-dose screen, 48 h (100 = growth as untreated, 0 = no growth, -100 = all killed)
Settings: 10 µM unless noted
The panel holds about 83,000 compounds, 20% with a hit somewhere; the sample as a whole holds those more often.
Each item that follows carries a reported growth.
MEASUREMENT_NAME: growth (%)

- N#C[Se]CCN1C(=O)c2ccccc2C1=O: 33.4
- Nc1nnnc2nc[nH]c12: 14.3
- CC(=O)ONc1ccc([N+](=O)[O-])c(C(F)(F)F)c1: 93.5
- CN(CCCCN(C)CCOS(C)(=O)=O)CCOS(C)(=O)=O: 47.2
- COc1cccc(/C=C/[N+](=O)[O-])c1: 50.8
- CC1(C)N=C(N)N=C(N)N1c1cccc(CCCCc2ccc(Cl)c(S(=O)(=O)F)c2)c1: 19.9
- O=C(CC1(O)C(=O)N(Cc2ccccc2)c2ccc(F)cc21)c1ccc(C(=O)NCC2CCC3(CC2)OOC2(CCCCC2)OO3)cc1 (stereo not drawn): -84.8
- CC(=O)[O][Hg][c]1c(N)c(C)cc(C)c1F: 28.3
